- TEST_TARGET: carboxylesterase-2 (Homo sapiens, UniProt O00748)
- ASSAY_NOTES: Metabolic stability of the compound in human intestinal microsomes assessed as carboxylesterase-2-mediated hydrolysis by measuring half life in absence of NADPH
- Assay type: ADME, Intestine
- CONDITIONS_USED: intestinal microsomes
MEASUREMENT_KIND: half-life (min)

INSERT INTO results (compound, test_target, quantity_unit, result_number) VALUES
  ('COC(=O)NCCCC(CC(C)C)C(=O)Oc1ccc(Oc2ccc(CN(Cc3ccccc3)c3cccc(NS(C)(=O)=O)c3C)cc2)cc1 (stereo unspecified)', 'carboxylesterase-2 (Homo sapiens, UniProt O00748)', 'min', 6.3);

###

- TEST_TARGET: carboxylesterase-1 (Homo sapiens, UniProt P23141)
- Sequence (P23141 whole entry): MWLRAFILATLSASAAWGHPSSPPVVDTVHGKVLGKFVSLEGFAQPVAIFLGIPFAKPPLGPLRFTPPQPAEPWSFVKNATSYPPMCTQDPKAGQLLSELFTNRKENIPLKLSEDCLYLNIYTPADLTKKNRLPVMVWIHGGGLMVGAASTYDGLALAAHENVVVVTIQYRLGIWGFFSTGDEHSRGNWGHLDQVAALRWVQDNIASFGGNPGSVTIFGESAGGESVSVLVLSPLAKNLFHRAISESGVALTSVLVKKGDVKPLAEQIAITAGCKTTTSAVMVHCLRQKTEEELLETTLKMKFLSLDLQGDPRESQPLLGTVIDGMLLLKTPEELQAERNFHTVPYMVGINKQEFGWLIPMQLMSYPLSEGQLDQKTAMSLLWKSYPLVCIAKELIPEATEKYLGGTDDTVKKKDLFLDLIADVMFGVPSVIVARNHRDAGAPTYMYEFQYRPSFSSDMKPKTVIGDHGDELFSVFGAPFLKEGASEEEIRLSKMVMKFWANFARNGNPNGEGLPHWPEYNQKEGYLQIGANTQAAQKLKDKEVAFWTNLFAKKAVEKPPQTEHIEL
- ASSAY_NOTES: Metabolic stability of the compound in human liver microsomes assessed as carboxylesterase-1-mediated hydrolysis by measuring half life in absence of NADPH
- Format: ADME
- CONDITIONS_USED: liver microsomes
MEASUREMENT_KIND: half-life (min)

INSERT INTO measurements (compound, test_target, measurement_kind, result_number) VALUES
  ('COC(=O)NCCCC(CC(C)C)C(=O)Oc1ccc(Oc2ccc(CN(Cc3ccccc3)c3cccc(NS(C)(=O)=O)c3C)cc2)cc1 (stereo unspecified)', 'carboxylesterase-1 (Homo sapiens, UniProt P23141)', 'half-life', 17);

###

- TEST_TARGET: Cocaine esterase (Homo sapiens, UniProt O00748)
- Sequence (O00748 whole entry): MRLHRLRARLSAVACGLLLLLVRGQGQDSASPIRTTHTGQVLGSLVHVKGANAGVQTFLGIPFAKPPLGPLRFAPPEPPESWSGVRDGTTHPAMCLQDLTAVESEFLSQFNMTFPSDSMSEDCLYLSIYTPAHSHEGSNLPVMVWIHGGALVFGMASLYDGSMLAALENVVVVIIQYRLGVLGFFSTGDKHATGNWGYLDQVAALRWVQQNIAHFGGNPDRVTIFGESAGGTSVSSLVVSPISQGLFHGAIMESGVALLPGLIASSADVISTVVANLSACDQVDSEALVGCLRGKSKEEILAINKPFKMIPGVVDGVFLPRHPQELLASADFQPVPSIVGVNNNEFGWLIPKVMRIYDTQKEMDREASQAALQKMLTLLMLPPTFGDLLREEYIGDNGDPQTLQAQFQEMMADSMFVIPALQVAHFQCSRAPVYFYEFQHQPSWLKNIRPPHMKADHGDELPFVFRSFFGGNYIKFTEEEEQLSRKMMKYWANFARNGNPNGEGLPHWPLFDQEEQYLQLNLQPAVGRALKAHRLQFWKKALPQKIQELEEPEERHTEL
- ASSAY_NOTES: Metabolic stability of the compound in human intestinal microsomes assessed as carboxylesterase-2-mediated hydrolysis by measuring intrinsic clearance at 1 uM in absence of NADPH
- Assay type: ADME, Intestine
MEASUREMENT_KIND: CL (µL/min/mg)

INSERT INTO measurements (compound, test_target, quantity_unit, result_number) VALUES
  ('COC(=O)NCCCC(C)(C)C(=O)Oc1ccc(Oc2ccc(CN(Cc3ccccc3)c3cccc(NS(C)(=O)=O)c3C)cc2)cc1', 'Cocaine esterase (Homo sapiens, UniProt O00748)', 'µL/min/mg', 1000),
  ('C#CCC(CCCNC(=O)OC)C(=O)Oc1ccc(Oc2ccc(CN(Cc3ccccc3)c3cccc(NS(C)(=O)=O)c3C)cc2)cc1 (centres undefined)', 'Cocaine esterase (Homo sapiens, UniProt O00748)', 'µL/min/mg', 1700),
  ('COC(=O)NCCCC(Cc1cn(Cc2ccccc2)nn1)C(=O)Oc1ccc(Oc2ccc(CN(Cc3ccccc3)c3cccc(NS(C)(=O)=O)c3C)cc2)cc1 (centres undefined)', 'Cocaine esterase (Homo sapiens, UniProt O00748)', 'µL/min/mg', 480),
  ('COC(=O)NCCCC(CC(C)C)C(=O)Oc1ccc(Oc2ccc(CN(Cc3ccccc3)c3cccc(NS(C)(=O)=O)c3C)cc2)cc1 (centres undefined)', 'Cocaine esterase (Homo sapiens, UniProt O00748)', 'µL/min/mg', 220),
  ('COC(=O)NCCCC(C)C(=O)Oc1ccc(Oc2ccc(CN(Cc3ccccc3)c3cccc(NS(C)(=O)=O)c3C)cc2)cc1 (centres undefined)', 'Cocaine esterase (Homo sapiens, UniProt O00748)', 'µL/min/mg', 2600),
  ('C#CCC(CCCNC(=O)OC)C(=O)OCCOc1ccc(Oc2ccc(CN(Cc3ccccc3)c3cccc(NS(C)(=O)=O)c3C)cc2)cc1 (centres undefined)', 'Cocaine esterase (Homo sapiens, UniProt O00748)', 'µL/min/mg', 1900),
  ('COC(=O)NCCCC(Cc1ccccc1)C(=O)Oc1ccc(Oc2ccc(CN(Cc3ccccc3)c3cccc(NS(C)(=O)=O)c3C)cc2)cc1 (centres undefined)', 'Cocaine esterase (Homo sapiens, UniProt O00748)', 'µL/min/mg', 140),
  ('COC(=O)NCCCC(C)(Cc1ccccc1)C(=O)Oc1ccc(Oc2ccc(CN(Cc3ccccc3)c3cccc(NS(C)(=O)=O)c3C)cc2)cc1 (centres undefined)', 'Cocaine esterase (Homo sapiens, UniProt O00748)', 'µL/min/mg', 43),
  ('COC(=O)NCCCC(Cc1cn(Cc2ccccc2)nn1)C(=O)OCCOc1ccc(Oc2ccc(CN(Cc3ccccc3)c3cccc(NS(C)(=O)=O)c3C)cc2)cc1 (centres undefined)', 'Cocaine esterase (Homo sapiens, UniProt O00748)', 'µL/min/mg', 240);
